Molecular target: NS3/4A BMS Strain (UniProt P27958)
Sequence (P27958 1027-1657): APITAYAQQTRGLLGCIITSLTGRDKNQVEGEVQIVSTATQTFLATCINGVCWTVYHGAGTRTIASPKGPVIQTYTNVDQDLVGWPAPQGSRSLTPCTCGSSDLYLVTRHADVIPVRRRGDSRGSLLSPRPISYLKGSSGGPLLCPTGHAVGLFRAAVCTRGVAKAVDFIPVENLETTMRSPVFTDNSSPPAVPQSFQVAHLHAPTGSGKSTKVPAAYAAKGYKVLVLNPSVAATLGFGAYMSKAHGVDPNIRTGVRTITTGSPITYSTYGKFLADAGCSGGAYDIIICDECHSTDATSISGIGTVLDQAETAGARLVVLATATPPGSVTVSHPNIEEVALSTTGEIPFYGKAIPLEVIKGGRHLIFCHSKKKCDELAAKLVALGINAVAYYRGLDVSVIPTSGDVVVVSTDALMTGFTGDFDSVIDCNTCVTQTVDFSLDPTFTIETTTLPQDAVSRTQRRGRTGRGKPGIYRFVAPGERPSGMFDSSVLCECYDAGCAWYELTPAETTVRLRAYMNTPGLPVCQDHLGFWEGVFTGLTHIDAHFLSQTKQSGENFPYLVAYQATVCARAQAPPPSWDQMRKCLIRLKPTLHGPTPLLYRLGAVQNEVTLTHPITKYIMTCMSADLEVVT
Assay: HCV NS3/4A protease complex enzyme assay
reportedMetric: IC50 (nM)

# smilesRepresentation, reportedMetric, numericReadout
records = [
    ("CCCCS[C@@]1(c2ccc(-c3ccccc3)cc2)C[C@H]2C(=O)N[C@]3(C(=O)NS(=O)(=O)C4CC4)C[C@H]3/C=C\\CCCCC[C@H](NC(=O)OC(C)(C)C)C(=O)N2C1", "IC50", 4),
]
